target: UniProt P45452; experiment: MMP 13 inhibition (IC50 / manual assay; method not described); format: biochemical; conditions: read-out: MMP 13 IC 50
quantityKind: IC50 (nM)
Express it in nM; write the number only.

Input line: Using known records, supply IC50 for COc1ccc(S(=O)(=O)C2(C(=O)NO)CCN(Cc3ccccc3)CC2)cc1
Output line: 2

Input line: Answer with the recorded IC50 of COc1ccc(S(=O)(=O)C(C)(Cc2ccccc2Br)C(=O)NO)cc1 (stereo not drawn) only.
Output line: 7

Input line: Return value of IC50 for input COc1ccc(S(=O)(=O)C(C)(CCCCN2C(=O)c3ccccc3C2=O)C(=O)NO)cc1 (stereo not drawn) , no commentary.
Output line: 5.7
